Below, each of the compounds is paired with its reported TGI value.
System: NCI-H23 lung
protocolDetails: NCI tumour cell line growth inhibition, 48 h

compound: CC(C)=CCc1c(O)c(C(=O)CC(C)C)c(O)c2c(-c3ccccc3)cc(=O)oc12
TGI: > 50 µM

compound: CCCCCCC(=O)c1ccc2ccccc2c1O
TGI: > 100 µM

compound: CCN(CC)/[N+]([O-])=N/OCC(C)O (stereo not given)
TGI: > 100 µM

compound: CC1(C)Oc2ccccc2[N+]([O-])=C1c1ccccc1
TGI: > 100 µM

compound: C#CCOC(=O)[C@@H](C)c1ccc2cc(OC)ccc2c1
TGI: > 100 µM

compound: NC(Cc1ccc(O)cn1)C(=O)O (stereo not given)
TGI: > 100 µM

compound: COC1C(O)CC(OC2CC(OC3CC(O[C@@H]4C(=O)c5c(cc6cc(OC7CC(OC8CC(O)C(O)C(C)O8)C(O)C(C)O7)c(C)c(O)c6c5O)CC4[C@H](OC)[C@@H](O)C(C)=O)OC(C)C3O)OC(C)C2O)OC1C (stereo not given in full)
TGI: 1.12 µM

compound: CC1(C)OC2COC(c3[nH]nc4c(=O)[nH]c(=O)[nH]c34)C2O1 (stereo not given)
TGI: > 100 µM

compound: COc1c(Cl)[c]([Hg][O]C(C)=O)c(NCC(C)=O)c(OC)[c]1[Hg][O]C(C)=O
TGI: 28.8 µM

compound: CC(C)C[C@H](NC(=O)CCc1cccc2ccccc12)B(O)O
TGI: 7.81 µM

====

Test system: HL-60(TB) leukemia
protocolDetails: NCI tumour cell line growth inhibition, 48 h
Let's look at some compounds and their measured TGI.

compound: Cc1cc(=O)n2nc(CSc3n[nH]c(=S)s3)sc2n1
valueModifier: >
TGI (µM): 100
//
compound: CCN(CCCl)c1cc(CN(C)C)cc(NC(=O)c2ccc(C(=O)Nc3ccccc3)cc2)c1
valueModifier: =
TGI (µM): 0.695
//
compound: CCCCCCC/C=C1\CCC(CN(C)C)C1=O (centres undefined)
valueModifier: =
TGI (µM): 9.09
//
compound: C[C@H](C(O)CC(=O)C(C)(C)O)[C@H]1CC[C@@]2(C)[C@@H]3CC[C@H]4C(C)(C)[C@@H](OC5OC(COC6OC(CO)C(O)C(O)C6O)C(O)C(O)C5O)CC[C@]4(C)C3=CC[C@]12C (some centres undefined)
valueModifier: >
TGI (µM): 100

====

Tested on: CCRF-CEM leukemia
protocolDetails: NCI tumour cell line growth inhibition, 48 h
Reported TGI values for the following compounds.

compound: Cc1nc2ccccc2c(/C=C/c2ccccc2)c1C(=O)/C=C/c1ccccc1
unitTag: µM
valueModifier: >
TGI: 100

compound: CO/N=C(\C(=O)[N-][n+]1cnn(CC(=O)O)c1)c1csc(N)n1
unitTag: µM
valueModifier: >
TGI: 10

compound: O=S(=O)(NCCNc1cc(-c2cn(-c3ccccc3)nc2-c2cccc(O)c2)ccn1)c1ccc(Br)cc1
unitTag: µM
valueModifier: =
TGI: 6.06

compound: COc1ccc(Br)c(C=Nc2cccc3cc(OC)c(OC)cc23)c1
unitTag: µM
valueModifier: >
TGI: 40.5

compound: O=C(c1cccc2cc(O)ccc12)c1cn(CCN2CCOCC2)c2ccccc12
unitTag: µM
valueModifier: =
TGI: 34.4

compound: COc1ccc(-c2c3c(nc4[nH]c(=S)[nH]c(=S)c24)CCCC3)cc1OC
unitTag: µM
valueModifier: =
TGI: 73.1

compound: NC(Cc1c[nH]c2cc(F)ccc12)C(=O)O (stereo not drawn)
unitTag: µM
valueModifier: >
TGI: 2500

compound: CCCc1n(Cc2ccc3ccccc3n2)cc[n+]1Cc1ccc2ccccc2c1
unitTag: µM
valueModifier: =
TGI: 6.1
